# Study target: T1, SNAP-GAL1R H289^7.39A (human, UniProt P47211 1-349, H289^7.39A, Lumi4-Tb on the SNAP tag)
# T1 construct: also called H289A; source: HEK293, transfected, on cells; not shown: SNAP tag, N-terminal, kept
# T1 sequence (looked up): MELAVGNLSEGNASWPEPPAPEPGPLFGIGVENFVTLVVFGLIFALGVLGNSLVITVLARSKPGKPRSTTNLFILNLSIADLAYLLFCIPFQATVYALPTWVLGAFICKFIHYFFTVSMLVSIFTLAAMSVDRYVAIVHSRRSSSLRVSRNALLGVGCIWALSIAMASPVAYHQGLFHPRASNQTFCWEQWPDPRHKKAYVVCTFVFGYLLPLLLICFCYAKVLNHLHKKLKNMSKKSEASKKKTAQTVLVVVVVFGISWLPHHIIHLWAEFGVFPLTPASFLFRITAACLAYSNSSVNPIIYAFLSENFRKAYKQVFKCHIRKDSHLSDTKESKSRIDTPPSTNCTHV
# Assay method text: AlphaScreen or HTRF; saturation binding: HEK293 cells transfected with SNAP-tagged receptor (WT or mutant) and labelled with SNAP-Lumi4-Tb, incubated with increasing concentrations of galanin-A2 in the presence or absence of 100 uM unlabeled galanin, 1 h at room temperature; HTRF ratio 665 nm/620 nm
# Experimental conditions: one partner purified
Assay metric: pKd
pKd is a log-scale quantity: -log10 of the concentration expressed in molar.

Query: pKd; subject: GWTLNSAGYLLGPHAVGNHRSFSDKNGLTSC (dye A2 on the additional C-terminal cysteine, numbers count on: the mature protein; additional cysteine at the C-terminal end of the peptide, carries the dye A2; source: synthetic peptide (synthesized by Vazyme, China))
6.87
